Procedure Text: Probe fluorescence ratio response to linolenic acid relative to ADIFAB2
Type: binding
Condition Notes: response relative to ADIFAB2
Reported DR/DR LNA values are given for each entry in this list.
Hey, just send me the number, nothing else.

In the examples that follow, each entry is paired with its recorded DR/DR LNA.
104V1, 72A (protein, listed as Rattus norvegicus, PEPTIDE (1)...(131) wild-type rat intestinal fatty acid binding protein) AFDGTWKVDRNENYEKFMEKMGINVVKRKLGAHDNLKLTITQEGNKFTVKESSNFRNIDVVFELGVDFAYSAADGTELTGTWTMEGNKLVGKFKRVDNGKELIVVREISGNELIQTYTYEGVEAKRIFKKE
0.73
31R, 72A (protein, listed as Rattus norvegicus, PEPTIDE (1)...(131) wild-type rat intestinal fatty acid binding protein) AFDGTWKVDRNENYEKFMEKMGINVVKRKLRAHDNLKLTITQEGNKFTVKESSNFRNIDVVFELGVDFAYSAADGTELTGTWTMEGNKLVGKFKRVDNGKELIAVREISGNELIQTYTYEGVEAKRIFKKE
0.437
38M, 72A (protein, listed as Rattus norvegicus, PEPTIDE (1)...(131) wild-type rat intestinal fatty acid binding protein) AFDGTWKVDRNENYEKFMEKMGINVVKRKLGAHDNLKMTITQEGNKFTVKESSNFRNIDVVFELGVDFAYSAADGTELTGTWTMEGNKLVGKFKRVDNGKELIAVREISGNELIQTYTYEGVEAKRIFKKE
1.697

IN: Provide DR/DR LNA value for the following molecule: 106A1, 72A (protein, listed as Rattus norvegicus, PEPTIDE (1)...(131) wild-type rat intestinal fatty acid binding protein) AFDGTWKVDRNENYEKFMEKMGINVVKRKLGAHDNLKLTITQEGNKFTVKESSNFRNIDVVFELGVDFAYSAADGTELTGTWTMEGNKLVGKFKRVDNGKELIAVAEISGNELIQTYTYEGVEAKRIFKKE
OUT: 0.52

IN: Provide DR/DR LNA value for the following molecule: 55V 73F 72A (protein, listed as Rattus norvegicus, PEPTIDE (1)...(131) wild-type rat intestinal fatty acid binding protein) AFDGTWKVDRNENYEKFMEKMGINVVKRKLGAHDNLKLTITQEGNKFTVKESSNVRNIDVVFELGVDFAYSAFDGTELTGTWTMEGNKLVGKFKRVDNGKELIAVREISGNELIQTYTYEGVEAKRIFKKE
OUT: 1.566

IN: Provide DR/DR LNA value for the following molecule: 14L 18L 73W 117S 72A (protein, listed as Rattus norvegicus, PEPTIDE (1)...(131) wild-type rat intestinal fatty acid binding protein) AFDGTWKVDRNENLEKFLEKMGINVVKRKLGAHDNLKLTITQEGNKFTVKESSNFRNIDVVFELGVDFAYSAWDGTELTGTWTMEGNKLVGKFKRVDNGKELIAVREISGNELIQTSTYEGVEAKRIFKKE
OUT: 1.499
